This collection of values is drawn from patent US9273046B2.

Target: C-Raf (Y340D/Y341D) (Homo sapiens (Human), UniProt P04049, Y340D/Y341D)
Sequence (P04049 whole entry Y340D/Y341D): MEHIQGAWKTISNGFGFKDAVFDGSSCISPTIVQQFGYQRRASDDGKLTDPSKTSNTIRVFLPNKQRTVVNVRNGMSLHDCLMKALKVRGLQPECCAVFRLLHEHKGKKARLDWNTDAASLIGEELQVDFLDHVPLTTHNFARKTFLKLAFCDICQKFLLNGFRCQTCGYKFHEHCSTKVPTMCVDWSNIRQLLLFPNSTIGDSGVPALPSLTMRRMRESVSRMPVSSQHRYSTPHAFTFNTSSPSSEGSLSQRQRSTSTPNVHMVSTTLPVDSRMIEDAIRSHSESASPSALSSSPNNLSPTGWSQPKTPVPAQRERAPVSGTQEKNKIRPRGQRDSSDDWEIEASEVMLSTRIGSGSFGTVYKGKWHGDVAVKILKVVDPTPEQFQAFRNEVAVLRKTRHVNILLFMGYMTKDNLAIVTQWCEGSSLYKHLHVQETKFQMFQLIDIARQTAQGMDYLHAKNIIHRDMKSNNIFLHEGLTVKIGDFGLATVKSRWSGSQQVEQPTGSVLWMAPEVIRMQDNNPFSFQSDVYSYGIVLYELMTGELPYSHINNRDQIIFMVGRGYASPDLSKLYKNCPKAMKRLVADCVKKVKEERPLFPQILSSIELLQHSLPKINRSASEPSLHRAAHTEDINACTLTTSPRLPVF
Assay: Raf IC50 assay, time-resolved fluorescence energy transfer (TR-FRET), C-Raf
Conditions: 0.5 nM C-Raf, 0.1 mM ATP, GST-tagged MEK1 substrate, 60 min preincubation
Measured pIC50 accompanies every entry in the list below.
Scale explanation: pIC50 corresponds to minus log10 of a concentration expressed in moles per litre.

Consider the following illustrative entries.
compound | pIC50
O=C1Nc2nccc(Oc3ccc4c(c3)C3C(O4)C3c3nc4ccc(C(F)(F)F)cc4[nH]3)c2CO1 (racemic) [Compound 3.7] | 8.49
FC(F)(F)c1ccc2nc(C3C4Oc5ccc(Oc6ccncn6)cc5C43)[nH]c2c1 (racemic) [Compound 3.2] | 6.65
O=C1CCc2c(Oc3ccc4c(c3)C3C(O4)C3c3nc4ccc(F)cc4[nH]3)ccnc2N1 (stereo not drawn) [Compound 2.7] | 8.68

Now consider a different compound.
Fill blank: measured pIC50 of the compound O=C1CCc2c(Oc3ccc4c(c3)C3C(O4)C3c3nc(-c4ccccc4Cl)c[nH]3)ccnc2N1 (stereo not drawn) [Compound 2.32] is ____.
9.05

----------
Listed below: pIC50 values for each entry.
Target: C-Raf (Y340D/Y341D) (Homo sapiens (Human), UniProt P04049, Y340D/Y341D)
Assay: Raf IC50 assay, time-resolved fluorescence energy transfer (TR-FRET), C-Raf
Details: 0.5 nM C-Raf, 0.1 mM ATP, GST-tagged MEK1 substrate, 60 min preincubation
pIC50 is a log-scale quantity: -log10 of the concentration expressed in molar.

Some entries whose results are on file:
molecule | readout_value
O=C1CCc2c(Oc3ccc4c(c3)C3C(O4)C3c3nc(-c4ccncc4)c[nH]3)ccnc2N1 (stereo not drawn) [Compound 2.31] | 9.46
O=C1CCc2c(Oc3ccc4c(c3)[C@H]3[C@@H](O4)[C@@H]3c3nc4cc(Cl)c(C(F)(F)F)cc4[nH]3)ccnc2N1 [Compound 2.5b] | 8.60

Need pIC50 of Cn1c(C2C3Oc4ccc(Oc5ccnc6c5CCC(=O)N6)cc4C32)nc2ccccc21 (stereo not drawn) [Compound 2.15] , thanks.
8.44

I have this molecule here, O=C1CCc2c(Oc3cc4c(cc3Cl)OC3C(c5nc6ccc(C(F)(F)F)cc6[nH]5)C43)ccnc2N1 (racemic) [Compound 2.36] , and I need its recorded pIC50.
7.49

Any idea what its pIC50 is? The molecule is O=C1CCc2c(Oc3ccc4c(c3)C3C(O4)C3c3nc4ccncc4[nH]3)ccnc2N1 (stereo not drawn) [Compound 2.9]
8.35

Using the record for N#Cc1ccc2nc(C3C4Oc5ccc(Oc6ccnc7c6CCC(=O)N7)cc5C43)[nH]c2c1 (stereo not drawn) [Compound 2.6] , report its pIC50.
8.35

So what's the measured pIC50 for this one? O=C1CCc2c(Oc3ccc4c(c3)C3C(O4)C3c3nc4ccccc4[nH]3)ccnc2N1 (racemic) [Compound 2.1]
9.52

Return reported pIC50; argument: Cn1c(C2C3Oc4ccc(Oc5ccnc6c5CCC(=O)N6)cc4C32)nc2cc(C(F)(F)F)ccc21 (stereo not drawn) [Compound 2.24]
8.37

Reported pIC50, molecule FC(F)(F)c1ccc2nc(C3C4Oc5ccc(Oc6ccnc7[nH]ccc67)cc5C43)[nH]c2c1 (racemic) [Compound 3.3] : ____
6.98

Item under review: O=C1CCc2c(Oc3ccc4c(c3)[C@H]3[C@@H](O4)[C@@H]3c3nc4ccc(C(F)(F)F)cc4[nH]3)ccnc2N1 [Compound 2.2a] . Reported pIC50?
8.92

What measured pIC50 goes with O=C1CCc2c(Oc3ccc4c(c3)C3C(O4)C3c3nc4ccc(Cl)cc4[nH]3)ccnc2N1 (stereo not drawn) [Compound 2.12] ?
8.39

Reported pIC50 for O=C1CCc2c(Oc3ccc4c(c3)C3C(O4)C3C(=O)O)ccnc2N1 (racemic) [Intermediate II] : what is it?
5.54

Requested field: pIC50. Item: O=C1CCc2c(Oc3ccc4c(c3)C3C(O4)C3c3nc4cc(F)c(F)cc4[nH]3)ccnc2N1 (stereo not drawn) [Compound 2.11]
8.48

Dear colleague, I am looking for the recorded pIC50 of the following molecule: CC(C)(C)c1ccc2nc(C3C4Oc5ccc(Oc6ccnc7c6CCC(=O)N7)cc5C43)[nH]c2c1 (stereo not drawn) [Compound 2.20]
8.36

GET /values?readout=pIC50&item= Cn1c(C2C3Oc4ccc(Oc5ccnc6c5CCC(=O)N6)cc4C32)nc2ccc(C(F)(F)F)cc21 (stereo not drawn) [Compound 2.23]
7.46

For the molecule CNC(=O)c1cc(Oc2ccc3c(c2)C2C(O3)C2c2nc3ccc(C(F)(F)F)cc3[nH]2)ccn1 (racemic) [Compound 3.1] , what pIC50 is on record?
8.19

Given O=C1CCc2c(Oc3ccc4c(c3)[C@@H]3[C@H](O4)[C@H]3c3nc4ccc(C(F)(F)F)cc4[nH]3)ccnc2N1 [Compound 2.2b] , state its recorded pIC50.
8.06

Value lookup for pIC50; key = O=C1CCc2c(Oc3ccc4c(c3)C3C(O4)C3c3nc4c(Cl)cc(C(F)(F)F)cc4[nH]3)ccnc2N1 (stereo not drawn) [Compound 2.10]
7.60

State the recorded pIC50 for this entry: O=C1CCc2c(Oc3ccc4c(c3)C3C(O4)C3c3nc4ccc(Br)cc4[nH]3)ccnc2N1 (stereo not drawn) [Compound 2.13]
8.77

Value lookup for pIC50; key = O=C1CCc2c(Oc3ccc4c(c3)[C@@H]3[C@H](O4)[C@H]3c3nc4cc(Cl)c(C(F)(F)F)cc4[nH]3)ccnc2N1 [Compound 2.5a]
7.68

Please give the measured pIC50 for this molecule: O=C1CCc2c(Oc3ccc4c(c3)C3C(C4)C3c3nc4ccccc4s3)ccnc2N1 (racemic) [Compound 1.3]
8.26

What does the record list as pIC50 for O=C1CCc2c(Oc3ccc4c(c3)C3C(O4)C3c3nc4ccc(OC(F)(F)F)cc4[nH]3)ccnc2N1 (stereo not drawn) [Compound 2.14] ?
8.01
